- ASSAY SYSTEM: ST3GAL3 (Homo sapiens, UniProt Q11203)
- Construct: recombinant Human ST3GAL3 (R&D systems #10554-GT)
- Sequence (Q11203 1-375): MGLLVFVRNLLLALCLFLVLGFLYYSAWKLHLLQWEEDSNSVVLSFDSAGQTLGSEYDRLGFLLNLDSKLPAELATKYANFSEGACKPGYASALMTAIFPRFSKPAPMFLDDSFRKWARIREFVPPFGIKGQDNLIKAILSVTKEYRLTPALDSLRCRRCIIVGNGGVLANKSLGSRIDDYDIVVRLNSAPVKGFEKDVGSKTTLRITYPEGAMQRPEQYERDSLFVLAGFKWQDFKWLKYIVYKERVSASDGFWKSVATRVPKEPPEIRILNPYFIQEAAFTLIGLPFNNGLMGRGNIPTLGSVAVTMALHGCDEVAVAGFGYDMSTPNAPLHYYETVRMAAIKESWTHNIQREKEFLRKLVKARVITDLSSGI
- PROTOCOL DETAILS: phosphatase-coupled sialyltransferase activity assay (EA002 kit) with recombinant enzyme
MEASUREMENT KIND: pIC50
In textbook form, pIC50 equals minus log to base ten of the concentration in mol/L.

# compound C[C@H](CCC(=O)OCCOCCOCCN=[N+]=[N-])C1CCC2C3CC[C@@H]4C[C@H](NC(=O)[C@H](CC(=O)O)Nc5ccc([N+](=O)[O-])c6nonc56)CC[C@]4(C)C3CC[C@@]21C (stereo partly shown) ; its pIC50 = 5.02
